The following compounds each carry a recorded pIC50 for Acetylcholinesterase (Homo sapiens).
pIC50: −log10 of the molar value.
quantity name: pIC50

                                smiles_repr  quantity_name  measured_result
0  COc1ccc(/C=C/C(=O)NCCC2CCN(Cc3ccccc3)CC2)cc1OC          pIC50             6.28
1  COc1cc(/C=C/C(=O)NCCC2CCN(Cc3ccccc3)CC2)ccc1OC(C)=O          pIC50             6.47
2  COc1cc(/C=C/C(=O)NCCC2CCN(Cc3ccccc3)CC2)cc(OC)c1OC          pIC50             6.63
3  O=C(/C=C/c1ccc(F)cc1)NCCC1CCN(Cc2ccccc2)CC1          pIC50             5.48
4  O=C(/C=C/c1ccc(O)c(O)c1)NCCC1CCN(Cc2ccccc2)CC1          pIC50             5.84
5  COc1cc(CCC(=O)NCCC2CCN(Cc3ccccc3)CC2)ccc1O          pIC50             5.27
6  COc1cc(/C=C/C(=O)NCCC2CCN(Cc3ccccc3)CC2)cc(OC)c1O          pIC50             6.49
7  COc1ccc(/C=C/C(=O)NCCC2CCN(Cc3ccccc3)CC2)cc1O          pIC50             5.78
8  O=C(/C=C/c1ccccc1)NCCC1CCN(Cc2ccccc2)CC1          pIC50             6.39
9  O=C(/C=C/c1ccc(O)cc1)NCCC1CCN(Cc2ccccc2)CC1          pIC50             5.66

----------
assay: Antioxidant activity assessed as DPPH radical scavenging activity at 1000 uM incubated in dark for 30 mins by spectrophotometry; type: physicochemical; details: 0.5 h
quantity name: inhibition (INH)

In [3]: df
Out[3]:
                                smiles_repr     quantity_name  measured_result
0  O=C(/C=C/c1ccc(F)cc1)NC1CCN(Cc2ccccc2)CC1  inhibition (INH)       Not Active
1  COc1cc(/C=C/C(=O)NC2CCN(Cc3ccccc3)CC2)cc(OC)c1OC  inhibition (INH)       Not Active
2  COc1cccc(/C=C/C(=O)NCCC2CCN(Cc3ccccc3)CC2)c1  inhibition (INH)       Not Active

----------
assay: in vitro; details: PAMPA
Let's look at some compounds and their measured Papp at 16 h, 5 mg/mL.
quantity name: Papp at 16 h, 5 mg/mL (×10⁻⁶ cm/s)

>>> print(df.to_string())
                                smiles_repr          quantity_name  scale_unit  measured_result
0  O=C(/C=C/c1ccc(O)c(O)c1)NCCC1CCN(Cc2ccccc2)CC1  Papp at 16 h, 5 mg/mL  ×10⁻⁶ cm/s             5.38
1  COc1cc(/C=C/C(=O)NCCC2CCN(Cc3ccccc3)CC2)cc(OC)c1OC  Papp at 16 h, 5 mg/mL  ×10⁻⁶ cm/s             7.43
2  COc1cc(/C=C/C(=O)NCCC2CCN(Cc3ccccc3)CC2)ccc1O  Papp at 16 h, 5 mg/mL  ×10⁻⁶ cm/s             5.16
3  COc1cc(/C=C/C(=O)NCCC2CCN(Cc3ccccc3)CC2)cc(OC)c1O  Papp at 16 h, 5 mg/mL  ×10⁻⁶ cm/s             7.68

----------
assay: Cytotoxicity against […] PC12 cells assessed as cell viability at 20 uM after 24 hrs by MTT assay; assay type: cell-based; settings: rat, pc-12, 24 h
quantity name: Activity

>>> print(df.to_string())
                                smiles_repr  quantity_name  measured_result
0  COc1ccc(/C=C/C(=O)NCCC2CCN(Cc3ccccc3)CC2)cc1O       Activity        Non-toxic
1  COc1cc(/C=C/C(=O)NC2CCN(Cc3ccccc3)CC2)ccc1OC(C)=O       Activity        Non-toxic
2  COc1cccc(/C=C/C(=O)NCCC2CCN(Cc3ccccc3)CC2)c1       Activity        Non-toxic
3  O=C(/C=C/c1ccc(O)cc1)CC(=O)NC1CCN(Cc2ccccc2)CC1       Activity        Non-toxic
4  O=C(/C=C/c1ccc(F)cc1)NCCC1CCN(Cc2ccccc2)CC1       Activity        Non-toxic
5  COc1cc(/C=C/C(=O)CC(=O)NC2CCN(Cc3ccccc3)CC2)ccc1O       Activity        Non-toxic
6  COc1cc(/C=C/C(=O)NCCC2CCN(Cc3ccccc3)CC2)cc(OC)c1O       Activity        Non-toxic
7  COc1cc(CCC(=O)NCCC2CCN(Cc3ccccc3)CC2)ccc1O       Activity        Non-toxic
8  O=C(/C=C/c1ccc(O)cc1)NCCC1CCN(Cc2ccccc2)CC1       Activity        Non-toxic
9  COc1cc(/C=C/C(=O)CC(=O)NCCC2CCN(Cc3ccccc3)CC2)ccc1O       Activity        Non-toxic

----------
pIC50: −log10 of the molar value.
The following molecules each carry a recorded pIC50 for Acetylcholinesterase (Electrophorus electricus).
quantity name: pIC50

                                 smiles_repr  measured_result
 0  COc1cc(CCC(=O)NC2CCN(Cc3ccccc3)CC2)ccc1O             4.47
 1  COc1cc(/C=C/C(=O)CC(=O)NCCC2CCN(Cc3ccccc3)CC2)ccc1O             5.59
 2  O=C(/C=C/c1ccc(O)c(O)c1)NCCC1CCN(Cc2ccccc2)CC1             5.29
 3  COc1cc(/C=C/C(=O)NCCC2CCN(Cc3ccccc3)CC2)ccc1OC(C)=O             6.54
 4  COc1cc(/C=C/C(=O)NCCC2CCN(Cc3ccccc3)CC2)cc(OC)c1OC             6.89
 5  O=C(/C=C/c1ccc(O)cc1)NC1CCN(Cc2ccccc2)CC1             4.15
 6  O=C(/C=C/c1ccc(O)c(O)c1)NC1CCN(Cc2ccccc2)CC1             4.21
 7                    NCCC1CCN(Cc2ccccc2)CC1             3.80
 8  O=C(/C=C/c1ccc(Cl)cc1)NC1CCN(Cc2ccccc2)CC1             4.17
 9  COc1cc(/C=C/C(=O)NC2CCN(Cc3ccccc3)CC2)cc(OC)c1OC             4.50
10  COc1cc(/C=C/C(=O)NC2CCN(Cc3ccccc3)CC2)cc(OC)c1O             4.55
11  O=C(/C=C/c1ccccc1)NCCC1CCN(Cc2ccccc2)CC1             6.27
12  COc1cc(/C=C/C(=O)NCCC2CCN(Cc3ccccc3)CC2)ccc1O             6.19
13  COc1ccc(/C=C/C(=O)NCCC2CCN(Cc3ccccc3)CC2)cc1O             5.97
14  O=C(/C=C/c1ccccc1O)NCCC1CCN(Cc2ccccc2)CC1             5.67

----------
molecular target: UniProtKB P81908; assay: Inhibition of equine serum butyrylcholinesterase preincubated for 5 mins followed by addition of S-butyrylthiocholine iodide as substrate measured after 60 to 120 mins by Ellmans method
pIC50: −log10 of the molar value.
If the reported pIC50 equals or exceeds 6, assign Criterion met. If not, assign Criterion not met.

In [3]: df
Out[3]:
                                smiles_repr        group_label
0  O=C(/C=C/c1ccc(O)c(O)c1)NC1CCN(Cc2ccccc2)CC1  Criterion not met
1  O=C(/C=C/c1ccc(O)cc1)NC1CCN(Cc2ccccc2)CC1  Criterion not met
2  O=C(/C=C/c1ccc(O)cc1)CC(=O)NC1CCN(Cc2ccccc2)CC1  Criterion not met
3  COc1cc(/C=C/C(=O)NCCC2CCN(Cc3ccccc3)CC2)cc(OC)c1OC      Criterion met
4  COc1cc(/C=C/C(=O)CC(=O)NC2CCN(Cc3ccccc3)CC2)ccc1O  Criterion not met
5  O=C(/C=C/c1ccc(F)cc1)NCCC1CCN(Cc2ccccc2)CC1  Criterion not met

----------
target: Cholinesterase (Equus caballus, UniProt P81908); experiment: Inhibition of equine serum butyrylcholinesterase preincubated for 5 mins followed by addition of S-butyrylthiocholine iodide as substrate measured after 60 to 120 mins by Ellmans method
Sequence (P81908 whole entry): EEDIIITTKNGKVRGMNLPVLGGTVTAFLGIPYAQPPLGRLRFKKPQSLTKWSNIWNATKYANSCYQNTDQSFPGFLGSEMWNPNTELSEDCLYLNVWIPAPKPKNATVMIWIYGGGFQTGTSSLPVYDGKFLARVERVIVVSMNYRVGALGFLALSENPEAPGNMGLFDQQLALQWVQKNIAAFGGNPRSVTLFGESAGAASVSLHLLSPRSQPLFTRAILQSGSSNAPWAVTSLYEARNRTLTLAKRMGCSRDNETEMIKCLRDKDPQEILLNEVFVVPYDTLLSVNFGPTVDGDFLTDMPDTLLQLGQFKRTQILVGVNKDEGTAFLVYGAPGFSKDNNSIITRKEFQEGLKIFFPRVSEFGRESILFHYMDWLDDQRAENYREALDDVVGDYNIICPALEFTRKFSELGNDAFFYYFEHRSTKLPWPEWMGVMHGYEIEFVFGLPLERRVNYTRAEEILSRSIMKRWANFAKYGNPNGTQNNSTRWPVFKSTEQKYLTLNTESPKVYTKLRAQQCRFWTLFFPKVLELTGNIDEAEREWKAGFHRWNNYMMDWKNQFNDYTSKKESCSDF
quantity name: IC50

In [3]: df
Out[3]:
                                smiles_repr  quantity_name  measured_result
0  COc1cc(/C=C/C(=O)NC2CCN(Cc3ccccc3)CC2)cc(OC)c1OC           IC50          1.25 µM
1  COc1cc(/C=C/C(=O)CC(=O)NCCC2CCN(Cc3ccccc3)CC2)ccc1O           IC50          1.08 µM
2  COc1cc(/C=C/C(=O)NCCC2CCN(Cc3ccccc3)CC2)ccc1OC(C)=O           IC50          0.67 µM
3  COc1cc(/C=C/C(=O)NCCC2CCN(Cc3ccccc3)CC2)ccc1O           IC50          1.22 µM
4  O=C(/C=C/c1ccccc1O)NCCC1CCN(Cc2ccccc2)CC1           IC50          1.06 µM

Value source: ChEMBL document CHEMBL3817754
